# Tested on: SF-126
# method.description: Cell viability (CellTiter-Glo) IC50 on tumor cell lines
# Assay type: cell-based
# condition.context: Homo sapiens, 72 h; SF-126, 3 days of culture; read-out: Inhibitory effect on cell line (IC50)
# Procedure: The inhibitory effect of isoquinoline compounds on various tumor cell lines was detected using cell activity detection reagent. Cell viability was detected using the Promega CellTiter-Glo kit, the kit reflected cell viability by directly measuring intracellular ATP content. In this experiment, the IC50 values of isoquinoline compounds on various tumor cell lines was determined. […]
pIC50: −log10 of the molar value. Where a name gives a salt, the structure may show the parent alone.
measure: pIC50

[[record]]
compound = "C=CCOc1c(OC)ccc2cc3[n+](cc12)CCc1cc2c(cc1-3)OCO2"
measure = "pIC50"
inequality_sign = "="
value_measured = 4.65

[[record]]
compound = "c1c2c(cc3c1OCO3)-c1cc3ccc4c(c3c[n+]1CC2)OCO4 [Coptisine hydrochloride]"
measure = "pIC50"
inequality_sign = "<"
value_measured = 4.52

[[record]]
compound = "Cc1c2[n+](cc3cc4c(cc13)OCO4)CCc1cc3c(cc1-2)OCO3"
measure = "pIC50"
inequality_sign = "<"
value_measured = 4.52

[[record]]
compound = "CCCOc1c(OC)ccc2cc3[n+](cc12)CCc1cc2c(cc1-3)OCO2"
measure = "pIC50"
inequality_sign = "="
value_measured = 5.12

[[record]]
compound = "COc1ccc2cc3[n+](cc2c1OC)CCc1cc2c(cc1-3)OCO2 [Berberine hydrochloride, reference compound]"
measure = "pIC50"
inequality_sign = "="
value_measured = 4.67

[[record]]
compound = "COc1ccc2cc3[n+](cc2c1OCC(=O)OC(C)(C)C)CCc1cc2c(cc1-3)OCO2"
measure = "pIC50"
inequality_sign = "="
value_measured = 4.81


Values from patent US20230404996A1
